Listed compounds paired with reported pIC50
Target: recombinant human FLAP protein (Homo sapiens)
Sequence (P20292 whole entry): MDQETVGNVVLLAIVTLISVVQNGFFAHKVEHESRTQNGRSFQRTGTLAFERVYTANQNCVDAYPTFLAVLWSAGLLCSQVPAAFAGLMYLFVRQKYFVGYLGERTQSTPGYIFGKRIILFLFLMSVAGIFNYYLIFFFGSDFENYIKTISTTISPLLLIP
Test: FLAP binding assay (SPA, displacement of [125I]L-691,831)
Conditions: membranes of sf9 cells expressing human FLAP, [125I]L-691,831 probe; read-out: hFLAP binding IC50
Experimental: Compounds are assessed for the ability to bind to FLAP in a binding assay that measures compound-specific displacement of an iodinated (^125I) FLAP inhibitor via a Scintillation Proximity Assay format (adapted from S. Charleson et al., Mol. Pharmacol., 1992, 41, 873-879). Cell pellets produced from sf9 insect cells expressing recombinant human FLAP protein are resuspended in buffer A [15 mM Tris-HCl (pH 7.5), 2 mM MgCl2, 0.3 mM EDTA, 1 mM PMSF]. […]
pIC50: −log10 of the molar value.

{"Compound": "COc1ccc(-c2ccc(NC(=O)C3(c4ccc(-c5cnc(N)nc5)cc4)CCC3)nc2)cn1 [Example 208]", "pIC50": 8.47}
{"Compound": "Cn1nccc1-c1ccc(NC(=O)C2(c3ccc(-c4cnc(N)nc4)cc3)CCC2)nc1 [Example 106]", "pIC50": 8.52}
{"Compound": "Nc1ncc(-c2ccc(C3(C(=O)Nc4ccc5ncsc5c4)CCOCC3)cc2)cn1 [Example 18]", "pIC50": 7.80}
{"Compound": "N#Cc1ccc(NC(=O)C2(c3ccc(-c4cnc(N)nc4)cc3)CCOCC2)nc1 [Example 32]", "pIC50": 7.33}
{"Compound": "Nc1ncc(-c2ccc(C3(C(=O)Nc4ccc(C(F)(F)F)cn4)CCOCC3)cc2)cn1 [Example 23]", "pIC50": 7.22}
{"Compound": "Nc1ncc(-c2ccc(C3(C(=O)Nc4ccc5c(c4)OCCO5)CCOCC3)cc2)cn1 [Example 12]", "pIC50": 7.17}
{"Compound": "Nc1ncc(-c2ccc(C3(C(=O)Nc4ccc(Oc5ccccc5)cn4)CCOCC3)cc2)cn1 [Example 173]", "pIC50": 7.74}
{"Compound": "CC(=O)N1CCc2cc(NC(=O)C3(c4ccc(-c5cnc(N)nc5)cc4)CCOCC3)ccc21 [Example 42]", "pIC50": 6.51}

Data credit: patent US9073895B2
